method: Phase I open-label single-dose crossover oral bioavailability / PK test of bedoradrine sulfate in healthy volunteers
Type: in vivo, human
applied_conditions: male, human, in vivo, po, 600 ug, Cmax range
Where a name gives a salt, the structure may show the parent alone.
endpoint_label: Cmax

Per the records, this compound ( CN(C)C(=O)COc1ccc2c(c1)C[C@@H](NC[C@H](O)c1ccc(O)c(CCO)c1)CC2 [MN-221, bedoradrine sulfate] ) has Cmax equal to 0.303 to 0.5 ng/mL

----------
method: Phase I open-label single-dose crossover oral bioavailability / PK test of bedoradrine sulfate in healthy volunteers
Format: in vivo, human
applied_conditions: both sexes, human, in vivo, iv, 300 ug, Tmax, mean
Structures can show the parent of a compound that is named as a salt.
endpoint_label: Tmax (min)
Note: unit min is implicit; provide only the numeric part.

Record summary for CN(C)C(=O)COc1ccc2c(c1)C[C@@H](NC[C@H](O)c1ccc(O)c(CCO)c1)CC2 [MN-221, bedoradrine sulfate] : reported Tmax = 15
